# System: 935938-334-R-J1-PDC spheroids with HUVEC/MSC, viability
# run-description: Anticancer human tumor 935938-334-R-J1-PDC patient-derived small intestine adenocarcinoma cell line growth inhibition [PI3K]
# particulars: curve of first compound; second compound 1 µM
pIC50: −log10 of the molar value.
measured-metric: pIC50

Some solved cases for reference:
{"columns": ["compound", "tgt", "pIC50"],
 "data": [
  ["C#Cc1c(F)ccc2cc(O)cc(-c3ncc4c(N5CC6CCC(C5)N6)nc(OCC56CCCN5CC(F)C6)nc4c3F)c12 (stereo not given) + COc1c(OCCCN2CCOCC2)ccc2c3n(c(=NC(=O)c4cnc(N)nc4)nc12)CCN3", "935938-334-R-J1-PDC spheroids with HUVEC/MSC, viability", "> 7.50"],
  ["Cn1ncnc1[C@H]1c2n[nH]c(=O)c3cc(F)cc(c23)N[C@@H]1c1ccc(F)cc1 + CC(Nc1ncnc2nc[nH]c12)c1cc2cccc(Cl)c2c(=O)n1-c1ccccc1", "935938-334-R-J1-PDC spheroids with HUVEC/MSC, viability", "< 7.00"],
  ["C[C@@H](NC(=O)c1ncnc(N)c1Cl)c1ncc(C(=O)Nc2cc(C(F)(F)F)c(Cl)cn2)s1 + COc1c(OCCCN2CCOCC2)ccc2c3n(c(=NC(=O)c4cnc(N)nc4)nc12)CCN3", "935938-334-R-J1-PDC spheroids with HUVEC/MSC, viability", "> 7.50"],
  ["CC(C)NCC(C(=O)N1CCN(c2ncnc3c2C(C)CC3O)CC1)c1ccc(Cl)cc1 (stereo not given) + COc1c(OCCCN2CCOCC2)ccc2c3n(c(=NC(=O)c4cnc(N)nc4)nc12)CCN3", "935938-334-R-J1-PDC spheroids with HUVEC/MSC, viability", "> 7.50"]
]}

Switching to the query record.
Req: Given the compound CC1(C)CCC(CN2CCN(c3ccc(C(=O)NS(=O)(=O)c4ccc(NCC5CCOCC5)c([N+](=O)[O-])c4)c(Oc4cnc5[nH]ccc5c4)c3)CC2)=C(c2ccc(Cl)cc2)C1 + COc1c(OCCCN2CCOCC2)ccc2c3n(c(=NC(=O)c4cnc(N)nc4)nc12)CCN3 , write its reported pIC50.
Resp: > 7.50

----------
# Tested on: 935938-334-R-J1-PDC spheroids with HUVEC/MSC, viability
# run-description: Anticancer human tumor 935938-334-R-J1-PDC cell line growth inhibition [PI3K];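 note: compound exposure lasted seven days before viability was read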
# particulars: curve of first compound; second compound 1 µM
pIC50: −log10 of the molar value.
measured-metric: pIC50

Some solved cases for reference:
{"columns": ["compound", "tgt", "pIC50"],
 "data": [
  ["Cn1cnc2c(F)c(Nc3ccc(Br)cc3Cl)c(C(=O)NOCCO)cc21 + COc1c(OCCCN2CCOCC2)ccc2c3n(c(=NC(=O)c4cnc(N)nc4)nc12)CCN3", "935938-334-R-J1-PDC spheroids with HUVEC/MSC, viability", "> 8.02"],
  ["CC(=O)c1c(C)c2cnc(Nc3ccc(N4CCNCC4)cn3)nc2n(C2CCCC2)c1=O + CC(Nc1ncnc2nc[nH]c12)c1cc2cccc(Cl)c2c(=O)n1-c1ccccc1", "935938-334-R-J1-PDC spheroids with HUVEC/MSC, viability", "< 7.00"],
  ["Cn1cnc2c(F)c(Nc3ccc(Br)cc3Cl)c(C(=O)NOCCO)cc21 + CC(Nc1ccc2c(c1)OCCn1cc(N3C(=O)OCC3C(F)F)nc1-2)C(N)=O", "935938-334-R-J1-PDC spheroids with HUVEC/MSC, viability", "> 8.02"]
]}

Consider the following items and state reported pIC50 for each.
1. CC(C)n1nc(-c2ccc3oc(N)nc3c2)c2c(N)ncnc21 + CC(Nc1ncnc2nc[nH]c12)c1cc2cccc(Cl)c2c(=O)n1-c1ccccc1
2. C=CC(=O)N1CCN(c2nc(=O)n(-c3c(C)ccnc3C(C)C)c3nc(-c4c(O)cccc4F)c(F)cc23)C(C)C1 (stereo unspecified) + COc1c(OCCCN2CCOCC2)ccc2c3n(c(=NC(=O)c4cnc(N)nc4)nc12)CCN3
3. CCN1CCN(Cc2ccc(Nc3ncc(F)c(-c4cc(F)c5nc(C)n(C(C)C)c5c4)n3)nc2)CC1 + COc1c(OCCCN2CCOCC2)ccc2c3n(c(=NC(=O)c4cnc(N)nc4)nc12)CCN3

Resp:
1: < 7.00; 2: > 7.50; 3: > 8.50

----------
Task for the reader: assign each of the following compounds its reported IC50.
# Tested on: 935938-334-R-J1-PDC spheroids with HUVEC/MSC, viability
# run-description: Anticancer human tumor 935938-334-R-J1-PDC cell line growth inhibition [PI3K];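 note: compound exposure lasted seven days before viability was read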
# particulars: curve of first compound; second compound 0.1 µM

Some solved cases for reference:
{"columns": ["compound", "tgt", "IC50"],
 "data": [
  ["C=CC(=O)N1CCN(c2nc(=O)n(-c3c(C)ccnc3C(C)C)c3nc(-c4c(O)cccc4F)c(F)cc23)C(C)C1 (centres undefined) + CC(Nc1ncnc2nc[nH]c12)c1cc2cccc(Cl)c2c(=O)n1-c1ccccc1", "935938-334-R-J1-PDC spheroids with HUVEC/MSC, viability", "> 10000 nM"],
  ["CCN1CCN(Cc2ccc(Nc3ncc(F)c(-c4cc(F)c5nc(C)n(C(C)C)c5c4)n3)nc2)CC1 + CC(Nc1ccc2c(c1)OCCn1cc(N3C(=O)OCC3C(F)F)nc1-2)C(N)=O", "935938-334-R-J1-PDC spheroids with HUVEC/MSC, viability", "< 3.16 nM"],
  ["Cn1ncnc1[C@H]1c2n[nH]c(=O)c3cc(F)cc(c23)N[C@@H]1c1ccc(F)cc1 + Cc1nc(NC(=O)N2CCCC2C(N)=O)sc1-c1ccnc(C(C)(C)C(F)(F)F)c1", "935938-334-R-J1-PDC spheroids with HUVEC/MSC, viability", "> 100 nM"]
]}

Switching to the query record.
Req: Lab note: 935938-334-R-J1-PDC spheroids with HUVEC/MSC, viability assay, enter IC50 for Cn1nccc1Nc1nccc(-c2ccn(C(CO)c3ccc(Cl)c(F)c3)c(=O)c2)n1 (centres undefined) + COc1c(OCCCN2CCOCC2)ccc2c3n(c(=NC(=O)c4cnc(N)nc4)nc12)CCN3 here
Resp: < 31.6 nM

----------
Task for the reader: assign each of the following molecules its reported viability, T/C.
# Test system: 935938-334-R-J1-PDC spheroids with HUVEC/MSC, viability
# run-description: Anticancer human tumor 935938-334-R-J1-PDC cell line growth inhibition [PI3K];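 note: compound exposure lasted seven days before viability was read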;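 for viability, T/C: percent of vehicle DMSO treated spheroid viability so 100% = untreated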
# particulars: second compound 0.316 µM; first compound 1 µM; stronger effect = lower value
# Source text: Combinatorial screen of targeted agents with the PI3K inhibitors inavolisib, alpelisib, duvelisib, and copanlisib in multi-cell type tumor spheroids A high-throughput screen of multi-cell type tumor spheroids was designed to identify active combinations of targeted small molecules and PI3K pathway inhibitors. […] Compounds. […] If the clinical Cmax for an agent had not been determined, the highest concentration tested was 10 microM. […]
Numbers only, in %.

{"columns": ["molecule", "reported-result"],
 "data": [
  ["CNC(=O)c1ccc(N2C(=S)N(c3ccc(C#N)c(C(F)(F)F)c3)C(=O)C2(C)C)cc1F + COc1c(OCCCN2CCOCC2)ccc2c3n(c(=NC(=O)c4cnc(N)nc4)nc12)CCN3", 32.4],
  ["CCCS(=O)(=O)Nc1ccc(F)c(C(=O)c2c[nH]c3ncc(-c4ccc(Cl)cc4)cc23)c1F + CC(Nc1ncnc2nc[nH]c12)c1cc2cccc(Cl)c2c(=O)n1-c1ccccc1", 110],
  ["CC(Cn1ccc(-c2ccc(C#N)c(Cl)c2)n1)NC(=O)c1cc(C(C)O)[nH]n1 (configuration not stated) + CC(Nc1ncnc2nc[nH]c12)c1cc2cccc(Cl)c2c(=O)n1-c1ccccc1", 98.2],
  ["CC(C)NCC(C(=O)N1CCN(c2ncnc3c2C(C)CC3O)CC1)c1ccc(Cl)cc1 (configuration not stated) + CC(Nc1ccc2c(c1)OCCn1cc(N3C(=O)OCC3C(F)F)nc1-2)C(N)=O", 43.6]
]}

Consider the following items and state reported viability, T/C for each.
1. Cn1ncc(Cl)c1-c1cc(C(=O)NC(CN)Cc2cccc(F)c2)sc1Cl (configuration not stated) + COc1c(OCCCN2CCOCC2)ccc2c3n(c(=NC(=O)c4cnc(N)nc4)nc12)CCN3
2. C[C@@H](NC(=O)c1ncnc(N)c1Cl)c1ncc(C(=O)Nc2cc(C(F)(F)F)c(Cl)cn2)s1 + CC(Nc1ncnc2nc[nH]c12)c1cc2cccc(Cl)c2c(=O)n1-c1ccccc1
3. CCCS(=O)(=O)Nc1ccc(F)c(C(=O)c2c[nH]c3ncc(-c4ccc(Cl)cc4)cc23)c1F + Cc1nc(NC(=O)N2CCCC2C(N)=O)sc1-c1ccnc(C(C)(C)C(F)(F)F)c1

Resp:
1. 28.6
2. 127
3. 95.5

----------
Task for the reader: assign each of the following compounds its reported viability, T/C.
# Test system: 935938-334-R-J1-PDC spheroids with HUVEC/MSC, viability
# run-description: Anticancer human tumor 935938-334-R-J1-PDC cell line growth inhibition [PI3K];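 note: compound exposure lasted seven days before viability was read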;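 for viability, T/C: percent of vehicle DMSO treated spheroid viability so 100% = untreated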
# particulars: second compound 0.316 µM; first compound 0.001 µM; stronger effect = lower value

{"columns": ["compound", "measured-metric", "reported-result"],
 "data": [
  ["CC(C)n1nc(-c2ccc3oc(N)nc3c2)c2c(N)ncnc21 + CC(Nc1ccc2c(c1)OCCn1cc(N3C(=O)OCC3C(F)F)nc1-2)C(N)=O", "viability, T/C", "91%"],
  ["CC(=O)c1c(C)c2cnc(Nc3ccc(N4CCNCC4)cn3)nc2n(C2CCCC2)c1=O + CC(Nc1ncnc2nc[nH]c12)c1cc2cccc(Cl)c2c(=O)n1-c1ccccc1", "viability, T/C", "91.2%"]
]}

Consider the following items and state reported viability, T/C for each.
1. Cn1ncnc1[C@H]1c2n[nH]c(=O)c3cc(F)cc(c23)N[C@@H]1c1ccc(F)cc1 + COc1c(OCCCN2CCOCC2)ccc2c3n(c(=NC(=O)c4cnc(N)nc4)nc12)CCN3
2. CC(=O)c1c(C)c2cnc(Nc3ccc(N4CCNCC4)cn3)nc2n(C2CCCC2)c1=O + CC(Nc1ccc2c(c1)OCCn1cc(N3C(=O)OCC3C(F)F)nc1-2)C(N)=O
3. Cn1ncnc1[C@H]1c2n[nH]c(=O)c3cc(F)cc(c23)N[C@@H]1c1ccc(F)cc1 + CC(Nc1ccc2c(c1)OCCn1cc(N3C(=O)OCC3C(F)F)nc1-2)C(N)=O

Resp:
1. 35.3%
2. 65.1%
3. 94.3%

// provenance: PubChem BioAssay AID1963966
